Target: T1, LILRB2 chimeric receptor on LILRB2 reporter cells (extracellular domain of LILRB2 fused with … (UniProt Q8N423 22-460))
T1 construct: extracellular domain;domain: transmembrane/intracellular domains; associates with DAP12; also called LILRB2-expressing reporter cells
Experiment: flow cytometry, LILRB2 reporter cells
Listed next: entries and their corresponding % of cells anti-hIgG APC+.
Report the value in % with no unit label.

binder	% of cells anti-hIgG APC+ / %
B2-25 (antibody, V domains shown, also called B2-25_HC; B2-25_LC) VH: QVQLVESGGGLVKPGGSLRLSCAASGFTFSDHYMSWIRQAPGKGLEWVSYITTTGSTMSYADSVKGRFTISRDNSKNSLHLQLSSLRAEDTAVYYCARDSIHVDGAFDIWGQGTMVTVSS VL: SYELTQPPSVSVAPGQTARITCGGNNIGSKSVHWYQQKPGQAPVLVVYDDSDRPSGIPERFSGSNSGNTATLTISRVEAGDEADYYCQVWDSSSDHWVFGGGTKLTVL	39.2

### Prompt GET /values?readout=% of cells anti-hIgG APC+&item= B2-18 (antibody, V domains shown, also called B2-18_HC; B2-18_LC) VH: QVQLVQSGAEVKKPGASVKVSCKASGYTFTRYGFSWVRQAPGQGLEWMGWISGYNGNTKYAQKFQGRVTMTTDTSTSTAYMELRSLTSNDTAVYYCARDRGSGYLEYWGPGTLVTVSS VL: DVQMTQSPSSLSASVGERVTLTCRASQGIYSSLAWYQQKPGKAPKLLLYGTSQLERGVPSRFSGSGSGTDYTLTISSLQPEDSATYYCQQHYNLPITFGQGTRLEIK
### Response 75.6
